The reported numbers originate from the supplement of paper PMC8728848.

Biological target: Neu5Ac(a2-3)[GalNAc(b1-4)]Gal(b1-4)GlcNAc
Assay: glycan array binding signal (z-score within array); higher = stronger binding
Settings: glycan notation: IUPAC condensed, linker removed
The sample as a whole holds a higher share of the strongest signals than the screen did.
observed.property: glycan array binding signal (z-score)
Numbers only.

Below: 3 binders and their reported glycan array binding signal (z-score).
ACA (Amaranthus caudatus) (protein) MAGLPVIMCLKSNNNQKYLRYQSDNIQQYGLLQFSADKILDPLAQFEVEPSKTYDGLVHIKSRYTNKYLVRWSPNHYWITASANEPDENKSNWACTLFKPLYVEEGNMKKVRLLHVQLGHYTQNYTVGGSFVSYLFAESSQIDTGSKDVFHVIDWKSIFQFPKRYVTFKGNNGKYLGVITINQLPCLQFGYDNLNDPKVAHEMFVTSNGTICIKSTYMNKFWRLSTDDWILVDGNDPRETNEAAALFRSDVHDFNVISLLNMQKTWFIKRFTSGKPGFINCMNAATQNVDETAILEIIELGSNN
-0.069
L-Selectin (Mus musculus), P18337 (protein) MVFPWRCEGTYWGSRNILKLWVWTLLCCDFLIHHGTHCWTYHYSEKPMNWENARKFCKQNYTDLVAIQNKREIEYLENTLPKSPYYYWIGIRKIGKMWTWVGTNKTLTKEAENWGAGEPNNKKSKEDCVEIYIKRERDSGKWNDDACHKRKAALCYTASCQPGSCNGRGECVETINNHTCICDAGYYGPQCQYVVQCEPLEAPELGTMDCIHPLGNFSFQSKCAFNCSEGRELLGTAETQCGASGNWSSPEPICQVVQCEPLEAPELGTMDCIHPLGNFSFQSKCAFNCSEGRELLGTAETQCGASGNWSSPEPICQETNRSFSKIKEGDYNPLFIPVAVMVTAFSGLAFLIWLARRLKKGKKSQERMDDPY
-0.282
pilr alpha (protein) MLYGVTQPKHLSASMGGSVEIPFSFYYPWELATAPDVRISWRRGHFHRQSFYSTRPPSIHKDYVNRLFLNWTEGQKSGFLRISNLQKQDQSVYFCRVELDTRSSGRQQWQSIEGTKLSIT
-0.65

Query binder follows.
Asked: Determine its reported glycan array binding signal (z-score): OrysaEULS2 (Oryza sativa) (protein) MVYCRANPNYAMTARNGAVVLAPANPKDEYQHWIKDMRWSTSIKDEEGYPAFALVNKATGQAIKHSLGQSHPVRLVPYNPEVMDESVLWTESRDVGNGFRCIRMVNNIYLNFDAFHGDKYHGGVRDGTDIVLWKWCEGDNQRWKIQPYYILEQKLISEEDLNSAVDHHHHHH
Given back: -0.207
